System: Aspergillus niger
Assay: Antifungal activity against Aspergillus niger NCIM 596 at 100 ug/disk after 48 hrs by agar disc-diffusion method
Format: functional
Conditions: NCIM 596, 48 h, read-out: DIZ
Could you please report measured zone of inhibition at 100 µg/disc for the items listed next?
Report the figure in mm without appending any unit label.

[ask] For O=S(=O)(Cc1ccc(Cl)cc1)Cc1nnc(-c2ccccc2Cl)o1 , what is its reported zone of inhibition at 100 µg/disc?
[reply] 17

[ask] What do you get for O=S(=O)(Cc1nnc(-c2ccccc2Cl)s1)c1ccccc1 ?
[reply] 15

[ask] What do you get for O=S(=O)(Cc1nnc(-c2ccccc2)o1)c1ccccc1 ?
[reply] 14

[ask] What do you get for Nn1c(CS(=O)(=O)c2ccc(Cl)cc2)nnc1-c1ccccc1Cl ?
[reply] 20

[ask] What do you get for Nn1c(CS(=O)(=O)c2ccccc2)nnc1-c1ccccc1Cl ?
[reply] 18

[ask] What do you get for O=S(=O)(Cc1nnc(-c2ccccc2Cl)o1)c1ccccc1 ?
[reply] 15

[ask] What do you get for O=S(=O)(Cc1nnc(-c2ccccc2)s1)c1ccccc1 ?
[reply] 15

[ask] What do you get for CC(=O)N1CCN(c2ccc(OCC3COC(Cn4ccnc4)(c4ccc(Cl)cc4Cl)O3)cc2)CC1 (stereo not given) ?
[reply] 36

[ask] What do you get for O=S(=O)(Cc1ccccc1)Cc1nnc(-c2ccccc2Cl)o1 ?
[reply] 18

[ask] What do you get for O=S(=O)(Cc1ccc(Cl)cc1)Cc1nnc(-c2ccccc2)o1 ?
[reply] 17

[ask] What do you get for O=S(=O)(Cc1ccccc1)Cc1nnc(-c2ccccc2)o1 ?
[reply] 16

[ask] What do you get for O=S(=O)(Cc1nnc(-c2ccccc2)s1)c1ccc(Cl)cc1 ?
[reply] 16

[ask] What do you get for O=S(=O)(Cc1nnc(-c2ccccc2Cl)s1)c1ccc(Cl)cc1 ?
[reply] 17

[ask] What do you get for Nn1c(CS(=O)(=O)Cc2ccc(Cl)cc2)nnc1-c1ccccc1Cl ?
[reply] 22

[ask] What do you get for O=S(=O)(Cc1nnc(-c2ccccc2Cl)o1)c1ccc(Cl)cc1 ?
[reply] 15

[ask] What do you get for Nn1c(CS(=O)(=O)Cc2ccccc2)nnc1-c1ccccc1 ?
[reply] 17

[ask] What do you get for Nn1c(CS(=O)(=O)Cc2ccccc2)nnc1-c1ccccc1Cl ?
[reply] 17

[ask] What do you get for Nn1c(CS(=O)(=O)Cc2ccc(Cl)cc2)nnc1-c1ccccc1 ?
[reply] 18

[ask] What do you get for Nn1c(CS(=O)(=O)c2ccccc2)nnc1-c1ccccc1 ?
[reply] 19

[ask] What do you get for O=S(=O)(Cc1ccc(Cl)cc1)Cc1nnc(-c2ccccc2)s1 ?
[reply] 17

[ask] What do you get for O=S(=O)(Cc1ccccc1)Cc1nnc(-c2ccccc2Cl)s1 ?
[reply] 16

[ask] What do you get for O=S(=O)(Cc1ccc(Cl)cc1)Cc1nnc(-c2ccccc2Cl)s1 ?
[reply] 20

[ask] What do you get for Nn1c(CS(=O)(=O)c2ccc(Cl)cc2)nnc1-c1ccccc1 ?
[reply] 19

[ask] What do you get for O=S(=O)(Cc1ccccc1)Cc1nnc(-c2ccccc2)s1 ?
[reply] 16

[ask] What do you get for O=S(=O)(Cc1nnc(-c2ccccc2)o1)c1ccc(Cl)cc1 ?
[reply] 16

---

Could you please report measured zone of inhibition at 100 µg/disc for the items listed next?
System: Fusarium solani
Test: Antifungal activity against Fusarium solani NCIM 1330 at 100 ug/disk after 48 hrs by agar disc-diffusion method
Format: functional
Conditions: NCIM 1330, 48 h, read-out: DIZ
Report the figure in mm without appending any unit label.

[ask] // map O=S(=O)(Cc1ccccc1)Cc1nnc(-c2ccccc2Cl)s1 to recorded zone of inhibition at 100 µg/disc (system: Fusarium solani)
[reply] 20

[ask] What do you get for O=S(=O)(Cc1ccccc1)Cc1nnc(-c2ccccc2)s1 ?
[reply] 18

[ask] What do you get for O=S(=O)(Cc1ccc(Cl)cc1)Cc1nnc(-c2ccccc2Cl)s1 ?
[reply] 28

[ask] What do you get for O=S(=O)(Cc1nnc(-c2ccccc2)s1)c1ccccc1 ?
[reply] 18

[ask] What do you get for Nn1c(CS(=O)(=O)c2ccc(Cl)cc2)nnc1-c1ccccc1Cl ?
[reply] 24

[ask] What do you get for O=S(=O)(Cc1ccccc1)Cc1nnc(-c2ccccc2Cl)o1 ?
[reply] 17

[ask] What do you get for Nn1c(CS(=O)(=O)Cc2ccc(Cl)cc2)nnc1-c1ccccc1Cl ?
[reply] 29

[ask] What do you get for O=S(=O)(Cc1ccc(Cl)cc1)Cc1nnc(-c2ccccc2Cl)o1 ?
[reply] 18

---

Test system: Proteus vulgaris
Assay: Antibacterial activity against Proteus vulgaris NCIM 2027 at 100 ug/disk after 24 hrs by agar disc-diffusion method
Type: functional
Conditions: NCIM 2027, 24 h, read-out: DIZ
Tag: 1 (yes) if measured zone of inhibition at 100 µg/disc is not below 20 mm, 0 (no) if it is.

[ask] Reported zone of inhibition at 100 µg/disc reaches at least 20 mm for O=S(=O)(Cc1nnc(-c2ccccc2)s1)c1ccccc1 ?
[reply] 0 (no)

[ask] What do you get for O=S(=O)(Cc1nnc(-c2ccccc2Cl)s1)c1ccc(Cl)cc1 ?
[reply] 0 (no)

[ask] What do you get for Nn1c(CS(=O)(=O)Cc2ccc(Cl)cc2)nnc1-c1ccccc1 ?
[reply] 1 (yes)

[ask] What do you get for Nn1c(CS(=O)(=O)c2ccc(Cl)cc2)nnc1-c1ccccc1 ?
[reply] 0 (no)

[ask] What do you get for Nn1c(CS(=O)(=O)Cc2ccccc2)nnc1-c1ccccc1Cl ?
[reply] 1 (yes)

[ask] What do you get for O=S(=O)(Cc1ccc(Cl)cc1)Cc1nnc(-c2ccccc2)o1 ?
[reply] 0 (no)

[ask] What do you get for O=S(=O)(Cc1ccccc1)Cc1nnc(-c2ccccc2)s1 ?
[reply] 0 (no)

[ask] What do you get for O=S(=O)(Cc1nnc(-c2ccccc2Cl)o1)c1ccc(Cl)cc1 ?
[reply] 0 (no)

[ask] What do you get for O=S(=O)(Cc1ccccc1)Cc1nnc(-c2ccccc2Cl)s1 ?
[reply] 0 (no)

[ask] What do you get for O=S(=O)(Cc1nnc(-c2ccccc2)s1)c1ccc(Cl)cc1 ?
[reply] 0 (no)

[ask] What do you get for O=S(=O)(Cc1ccccc1)Cc1nnc(-c2ccccc2Cl)o1 ?
[reply] 0 (no)

[ask] What do you get for O=S(=O)(Cc1nnc(-c2ccccc2)o1)c1ccccc1 ?
[reply] 0 (no)

[ask] What do you get for O=C(N[C@H](CO)[C@H](O)c1ccc([N+](=O)[O-])cc1)C(Cl)Cl [CHLORAMPHENICOL] ?
[reply] 1 (yes)

[ask] What do you get for O=S(=O)(Cc1nnc(-c2ccccc2Cl)s1)c1ccccc1 ?
[reply] 0 (no)

---

System: Fusarium solani
Assay: Antifungal activity against Fusarium solani NCIM 1330 at 200 ug/disk after 48 hrs by agar disc-diffusion method
Type: functional
Conditions: NCIM 1330, 48 h, read-out: DIZ
reported-endpoint: zone of inhibition at 200 µg/disc (mm)
Report the figure in mm without appending any unit label.

[ask] For O=S(=O)(Cc1ccc(Cl)cc1)Cc1nnc(-c2ccccc2)s1 , what is its reported zone of inhibition at 200 µg/disc?
[reply] 27

[ask] What do you get for O=S(=O)(Cc1ccccc1)Cc1nnc(-c2ccccc2)s1 ?
[reply] 20

[ask] What do you get for CC(=O)N1CCN(c2ccc(OCC3COC(Cn4ccnc4)(c4ccc(Cl)cc4Cl)O3)cc2)CC1 (centres undefined) ?
[reply] 42

[ask] What do you get for Nn1c(CS(=O)(=O)c2ccccc2)nnc1-c1ccccc1Cl ?
[reply] 25

[ask] What do you get for Nn1c(CS(=O)(=O)Cc2ccc(Cl)cc2)nnc1-c1ccccc1 ?
[reply] 26

[ask] What do you get for Nn1c(CS(=O)(=O)c2ccc(Cl)cc2)nnc1-c1ccccc1Cl ?
[reply] 27

[ask] What do you get for Nn1c(CS(=O)(=O)Cc2ccccc2)nnc1-c1ccccc1Cl ?
[reply] 23

[ask] What do you get for O=S(=O)(Cc1nnc(-c2ccccc2Cl)o1)c1ccc(Cl)cc1 ?
[reply] 19

[ask] What do you get for Nn1c(CS(=O)(=O)c2ccc(Cl)cc2)nnc1-c1ccccc1 ?
[reply] 24

[ask] What do you get for O=S(=O)(Cc1ccccc1)Cc1nnc(-c2ccccc2Cl)o1 ?
[reply] 19

[ask] What do you get for Nn1c(CS(=O)(=O)Cc2ccccc2)nnc1-c1ccccc1 ?
[reply] 21

[ask] What do you get for O=S(=O)(Cc1nnc(-c2ccccc2Cl)s1)c1ccc(Cl)cc1 ?
[reply] 24

[ask] What do you get for Nn1c(CS(=O)(=O)Cc2ccc(Cl)cc2)nnc1-c1ccccc1Cl ?
[reply] 32

[ask] What do you get for O=S(=O)(Cc1ccc(Cl)cc1)Cc1nnc(-c2ccccc2)o1 ?
[reply] 19

[ask] What do you get for O=S(=O)(Cc1nnc(-c2ccccc2)s1)c1ccccc1 ?
[reply] 22

[ask] What do you get for O=S(=O)(Cc1ccc(Cl)cc1)Cc1nnc(-c2ccccc2Cl)s1 ?
[reply] 31

[ask] What do you get for O=S(=O)(Cc1nnc(-c2ccccc2Cl)o1)c1ccccc1 ?
[reply] 20

[ask] What do you get for O=S(=O)(Cc1nnc(-c2ccccc2)s1)c1ccc(Cl)cc1 ?
[reply] 21

[ask] What do you get for O=S(=O)(Cc1ccccc1)Cc1nnc(-c2ccccc2Cl)s1 ?
[reply] 23
